Source: patent US20240139289A1

Catalogue of binders with associated PTHR1 EC50, calcium mobilization assay in agonist mode
Biological target: T1, human parathyroid hormone receptor 1 (PTHR1) (human, UniProt Q03431 27-593)
T1 sequence (looked up): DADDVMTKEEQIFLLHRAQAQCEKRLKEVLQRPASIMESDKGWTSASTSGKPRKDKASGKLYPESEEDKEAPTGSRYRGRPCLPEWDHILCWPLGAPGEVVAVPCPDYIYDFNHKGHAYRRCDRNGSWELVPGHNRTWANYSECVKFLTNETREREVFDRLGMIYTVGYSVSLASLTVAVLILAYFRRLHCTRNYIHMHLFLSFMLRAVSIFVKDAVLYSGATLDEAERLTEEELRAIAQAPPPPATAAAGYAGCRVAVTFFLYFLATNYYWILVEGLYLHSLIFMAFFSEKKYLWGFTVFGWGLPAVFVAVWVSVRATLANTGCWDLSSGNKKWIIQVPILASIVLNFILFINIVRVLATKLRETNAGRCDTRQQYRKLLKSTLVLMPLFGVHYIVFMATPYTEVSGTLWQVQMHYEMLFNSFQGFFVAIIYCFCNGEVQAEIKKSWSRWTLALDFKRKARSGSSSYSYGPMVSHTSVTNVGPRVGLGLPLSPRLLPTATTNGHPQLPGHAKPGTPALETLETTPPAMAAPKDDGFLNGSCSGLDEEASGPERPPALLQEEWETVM
Experiment: cell-based or functional assay
Ends that are not written are not given here.
Answer with a number only, understood to be in nM.

- SVSEIQLMHNLGKHLNSMERVEWLRKKLQDVHNFC (C-terminal Cys thiol conjugated through maleimide-PEG ~10,000 Da (~227 units) to VitD-NH2 (25-hydroxy vitamin D, C3 position); C-terminal amide) [EXT616 (PTH-PEG10 kDa-VitD)]: 33.6

Given the binder SVSEIQLMHNLGKHLNSMERVEWLRKKLQDVHNFC (C-terminal Cys (position 35) carries succinimido-propionylamino-PEG36-propionyl-aminopropyl-25-hydroxy-Vitamin D on its thiol; C-terminal amide (-NH2)) [EXT608 (PTH(1-34)-Cys-PEG36-25-hydroxy-vitamin D conjugate, C-terminal amide, R = NH2)] , what is its reported PTHR1 EC50, calcium mobilization assay in agonist mode? 28.6

Given the binder SVSEIQLMHNLGKHLNSMERVEWLRKKLQDVHNFC-NH2 (not fully specified (residue 35); also: acetate salt) [EXT606 (PTH-cys-PEG24-VitD)] , what is its reported PTHR1 EC50, calcium mobilization assay in agonist mode? 30.5
